# Tested on: SK-MEL-28 melanoma
# assay notes: NCI tumour cell line growth inhibition, 48 h
Exercise: for every item that follows, state its recorded GI50.

Value of GI50 reported for the molecule COc1ccc(-n2nnc3c(sc4ccccc43)c2=O)cc1 is > 100 µM

In plain terms, CS(=O)(=O)c1ccc(Cl)c([N+](=O)[O-])c1 has a documented GI50 of 17.9 µM

# GI50 of CCN(CCCCCCCCCCN1CC(=O)N(CCCCCCCCCCN(CC)Cc2ccccc2OC)CC1=O)Cc1ccccc1OC = 1.75 µM

GET /value?item= CSc1ccc(/C=C2\CNC/C(=C\c3ccc(SC)cc3)C2=O)cc1 &field=GI50 returns 150 µg/mL

Sample COc1ccc(Cl)cc1Nc1nc(C(F)(F)F)ccc1C(=O)NN ; GI50 observed: 3.38 µM

Measured GI50 of COc1cc(-c2csc(NC(=O)c3cc(C(F)(F)F)cc(C(F)(F)F)c3)n2)cc(OC)c1OC : 2.77 µM

GI50 reading for Cc1cccc(NC(=O)c2sc3nc4c(cc3c2N)CCCC4)c1C : > 48.4 µM

Consider Cn1cc(C2=C(c3cn(C)c4ccc(N)cc34)C(=O)NC2=O)c2ccccc21 . Its measured GI50 is 17.2 µM
